Here, each record is paired with measured fraction unbound at 72 h, 0.476 mg/ml data.
# assay.target: HSA (Homo sapiens, UniProt P02768)
# Sequence (P02768 25-609): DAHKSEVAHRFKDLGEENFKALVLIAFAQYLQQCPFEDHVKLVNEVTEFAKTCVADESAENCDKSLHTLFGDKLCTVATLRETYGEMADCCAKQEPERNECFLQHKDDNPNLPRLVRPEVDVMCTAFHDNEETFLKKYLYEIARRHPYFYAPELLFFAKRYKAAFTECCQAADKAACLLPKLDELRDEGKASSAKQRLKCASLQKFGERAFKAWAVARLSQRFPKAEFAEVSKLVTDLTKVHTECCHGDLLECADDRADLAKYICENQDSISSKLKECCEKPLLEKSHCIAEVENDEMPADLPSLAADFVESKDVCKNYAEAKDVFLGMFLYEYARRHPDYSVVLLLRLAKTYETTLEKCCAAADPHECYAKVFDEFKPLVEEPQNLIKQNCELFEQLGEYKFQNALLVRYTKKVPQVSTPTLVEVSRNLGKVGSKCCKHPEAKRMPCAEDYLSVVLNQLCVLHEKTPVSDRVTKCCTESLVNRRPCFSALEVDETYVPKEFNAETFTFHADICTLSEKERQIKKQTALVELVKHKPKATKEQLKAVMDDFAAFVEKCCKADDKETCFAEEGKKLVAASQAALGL
# protocol.summary: Site marker competitive experiments (warfarin, ibuprofen) by equilibrium dialysis
# Type: in vitro ADME
# condition.notes: with ibuprofen 0.3 mg/ml, drug 0.476 mg/ml, n = 3, read-out: Plasma protein binding (converted)
In your answer, state the number alone without any accompanying words.

molecule	fraction unbound at 72 h, 0.476 mg/ml
CC(C)(O)C1CCC(C)(C2C(O)CC3(C)C4CC(OC5OC(CO)C(O)C(O)C5O)C5C(C)(C)C(OC6OCC(O)C(O)C6O)CCC56CC46CCC23C)O1 (centres unmarked) [AGS IV, reference compound]	0.0613

[Q] # return recorded fraction unbound at 72 h, 0.476 mg/ml for entry CC(C)(O)C1CCC(C)(C2C(O)CC3(C)C4CC(OC5OC(C(=O)O)C(O)C(O)C5O)C5C(C)(C)C(OC6OCC(O)C(O)C6O)CCC56CC46CCC23C)O1 (centres unmarked)
[A] 0.248

----------
Here, each record is paired with measured fraction unbound at 72 h, 0.476 mg/ml data.
# assay.target: HSA (Homo sapiens)
# protocol.summary: Site marker competitive experiments (warfarin, ibuprofen) by equilibrium dialysis
# Format: in vitro ADME
# condition.notes: with ibuprofen 0.06 mg/ml, drug 0.476 mg/ml, n = 3, read-out: Plasma protein binding (converted)

compound	fraction unbound at 72 h, 0.476 mg/ml
CC(C)(O)C1CCC(C)(C2C(O)CC3(C)C4CC(OC5OC(C(=O)O)C(O)C(O)C5O)C5C(C)(C)C(OC6OCC(O)C(O)C6O)CCC56CC46CCC23C)O1 (centres unmarked)	0.368

API: the following record is the query input.
[Q] # return recorded fraction unbound at 72 h, 0.476 mg/ml for entry CC(C)(O)C1CCC(C)(C2C(O)CC3(C)C4CC(OC5OC(CO)C(O)C(O)C5O)C5C(C)(C)C(OC6OCC(O)C(O)C6O)CCC56CC46CCC23C)O1 (centres unmarked) [AGS IV, reference compound]
[A] 0.0718

----------
# assay.target: HSA (Homo sapiens)
# protocol.summary: Site marker competitive experiments (warfarin, ibuprofen) by equilibrium dialysis
# Assay type: in vitro ADME
# condition.notes: with warfarin 0.06 mg/ml, drug 0.476 mg/ml, n = 3, read-out: Plasma protein binding (converted)
Here, each record is paired with measured fraction unbound at 72 h, 0.476 mg/ml data.
In your answer, state the number alone without any accompanying words.

molecule	val
CC(C)(O)C1CCC(C)(C2C(O)CC3(C)C4CC(OC5OC(C(=O)O)C(O)C(O)C5O)C5C(C)(C)C(OC6OCC(O)C(O)C6O)CCC56CC46CCC23C)O1 (centres unmarked) [LS-102, astragalosidic acid]	0.467

[Q] # return recorded fraction unbound at 72 h, 0.476 mg/ml for entry CC(C)(O)C1CCC(C)(C2C(O)CC3(C)C4CC(OC5OC(CO)C(O)C(O)C5O)C5C(C)(C)C(OC6OCC(O)C(O)C6O)CCC56CC46CCC23C)O1 (centres unmarked) [AGS IV, reference compound]
[A] 0.051

----------
# assay.target: HSA (Homo sapiens)
# protocol.summary: Plasma protein binding rate by equilibrium dialysis and UHPLC-MS/MS
# Format: in vitro ADME
# condition.notes: human, plasma, across the three concentrations (0.238-0.714 mg/ml); read-out: Plasma protein binding rate, range over the concentrations
readout.kind: fraction unbound at 72 h

[Q] Using HSA (Homo sapiens) as the test system, report measured fraction unbound at 72 h of CC(C)(O)C1CCC(C)(C2C(O)CC3(C)C4CC(OC5OC(C(=O)O)C(O)C(O)C5O)C5C(C)(C)C(OC6OCC(O)C(O)C6O)CCC56CC46CCC23C)O1 (stereo not shown) .
[A] 0.306 to 0.331

----------
# assay.target: HSA (Homo sapiens, UniProt P02768)
# protocol.summary: Plasma protein binding rate by equilibrium dialysis and UHPLC-MS/MS
# Format: in vitro ADME
# condition.notes: human; drug 0.476 mg/ml; equilibrium dialysis 72 h at 4 °C; n = 3; read-out: Protein binding rate (%, Mean±SD) (converted)
readout.kind: fraction unbound at 72 h, 0.476 mg/ml
In your answer, state the number alone without any accompanying words.

[Q] # return recorded fraction unbound at 72 h, 0.476 mg/ml for entry CC(C)(O)C1CCC(C)(C2C(O)CC3(C)C4CC(OC5OC(C(=O)O)C(O)C(O)C5O)C5C(C)(C)C(OC6OCC(O)C(O)C6O)CCC56CC46CCC23C)O1 (stereo not shown)
[A] 0.306

----------
# assay.target: HSA (Homo sapiens, UniProt P02768)
# protocol.summary: Site marker competitive experiments (warfarin, ibuprofen) by equilibrium dialysis
# Format: in vitro ADME
# condition.notes: with warfarin 1.2 mg/ml, drug 0.476 mg/ml, n = 3, read-out: Plasma protein binding (converted)
readout.kind: fraction unbound at 72 h, 0.476 mg/ml
In your answer, state the number alone without any accompanying words.

compound	fraction unbound at 72 h, 0.476 mg/ml
CC(C)(O)C1CCC(C)(C2C(O)CC3(C)C4CC(OC5OC(CO)C(O)C(O)C5O)C5C(C)(C)C(OC6OCC(O)C(O)C6O)CCC56CC46CCC23C)O1 (centres unmarked) [AGS IV, reference compound]	0.0781

[Q] # return recorded fraction unbound at 72 h, 0.476 mg/ml for entry CC(C)(O)C1CCC(C)(C2C(O)CC3(C)C4CC(OC5OC(C(=O)O)C(O)C(O)C5O)C5C(C)(C)C(OC6OCC(O)C(O)C6O)CCC56CC46CCC23C)O1 (centres unmarked)
[A] 0.453

----------
# assay.target: HSA (Homo sapiens)
# protocol.summary: Plasma protein binding rate by equilibrium dialysis and UHPLC-MS/MS
# Assay type: in vitro ADME
# condition.notes: human; drug 0.714 mg/ml; equilibrium dialysis 72 h at 4 °C; n = 3; read-out: Protein binding rate (%, Mean±SD) (converted)
readout.kind: fraction unbound at 72 h, 0.714 mg/ml
In your answer, state the number alone without any accompanying words.

[Q] # return recorded fraction unbound at 72 h, 0.714 mg/ml for entry CC(C)(O)C1CCC(C)(C2C(O)CC3(C)C4CC(OC5OC(C(=O)O)C(O)C(O)C5O)C5C(C)(C)C(OC6OCC(O)C(O)C6O)CCC56CC46CCC23C)O1 (stereo not shown)
[A] 0.314

----------
# assay.target: HSA (Homo sapiens)
# protocol.summary: Plasma protein binding rate by equilibrium dialysis and UHPLC-MS/MS
# Type: in vitro ADME
# condition.notes: human, plasma, drug 0.714 mg/ml; equilibrium dialysis 72 h at 4 °C; n = 3; read-out: Protein binding rate (%, Mean±SD) (converted)
readout.kind: fraction unbound at 72 h, 0.714 mg/ml
In your answer, state the number alone without any accompanying words.

[Q] # return recorded fraction unbound at 72 h, 0.714 mg/ml for entry CC(C)(O)C1CCC(C)(C2C(O)CC3(C)C4CC(OC5OC(CO)C(O)C(O)C5O)C5C(C)(C)C(OC6OCC(O)C(O)C6O)CCC56CC46CCC23C)O1 (stereo not shown) [AGS IV, reference compound]
[A] 0.0594

----------
# assay.target: HSA (Homo sapiens, UniProt P02768)
# protocol.summary: Plasma protein binding rate by equilibrium dialysis and UHPLC-MS/MS
# Type: in vitro ADME
# condition.notes: human, plasma, drug 0.476 mg/ml; equilibrium dialysis 72 h at 4 °C; n = 3; read-out: Protein binding rate (%, Mean±SD) (converted)
readout.kind: fraction unbound at 72 h, 0.476 mg/ml
In your answer, state the number alone without any accompanying words.

[Q] Using HSA (Homo sapiens, UniProt P02768) as the test system, report measured fraction unbound at 72 h, 0.476 mg/ml of CC(C)(O)C1CCC(C)(C2C(O)CC3(C)C4CC(OC5OC(CO)C(O)C(O)C5O)C5C(C)(C)C(OC6OCC(O)C(O)C6O)CCC56CC46CCC23C)O1 (stereo not shown) [AGS IV, reference compound] .
[A] 0.0258
